- condition_details: pH 2.7
Marks after values point to notes of the source that are not given here.
Log P listing for selected compounds.
measured_metric: Log P

compound	measured_metric	observed_measurement
C#CC(C)NC(=C(C#N)C(=O)OCC)c1cccnc1Cl (stereo not drawn) [Compound 1181]	Log P	2.66^[a]
CCOC(=O)C(C#N)=C(Nc1ccc(C(C)C)cc1)c1ccsc1Br [Compound 536]	Log P	4.78^[a]
CC1CC(NC(=O)C(C#N)=C(NC(C)C(C)C)c2cccnc2Cl)C1 (stereo not drawn) [Compound 1512]	Log P	4.01^[a]
CCOC(=O)C(C#N)=C(NC1CCC1)c1cccnc1C(F)F [Compound 799]	Log P	2.76^[a]
CCOC(=O)C(C#N)=C(NC(C)c1ccccn1)c1c(C(F)(F)F)nn(C)c1Cl (stereo not drawn) [Compound 314]	Log P	3.24^[a]
CCOC(=O)C(C#N)=C(NC(C(=O)OC)c1ccccc1)c1cn(C)nc1C(F)F (stereo not drawn) [Compound 1140]	Log P	2.94^[a]
CCOC(=O)C(C#N)=C(NC(C)(C)C#Cc1ccc(C#N)cc1)c1sc(C)nc1C(F)(F)F [Compound 1093]	Log P	4.04^[a]
COC(=O)C(C#N)=C(NC(CC(F)(F)F)c1ccccc1)c1cccnc1Cl (stereo not drawn) [Compound 389]	Log P	2.98^[a]
CCCC(C)NC(=C(C#N)C(=O)OCC)c1sccc1C(F)(F)F (stereo not drawn) [Compound 865]	Log P	4.21^[a]
COC(=O)C(C#N)=C(NC(C)C1(Cl)CC1)c1cccnc1Cl (stereo not drawn) [Compound 768]	Log P	2.72^[a]
CCOC(=O)C(C#N)=C(NC(C)C(=O)OCC)c1cccnc1Cl (stereo not drawn) [Compound 1194]	Log P	2.82^[a]
CCOC(=O)C(C#N)=C(NC(C)C(F)(F)F)c1cn(C)cc1C(F)(F)F (racemic) [Compound 812]	Log P	3.64^[a]
CCOC(=O)C(C#N)=C(NC(C)C(C)=NOC)c1cccnc1Cl (stereo not drawn) [Compound 1633]	Log P	2.8^[a]
CCOC(=O)C(C#N)=C(NCc1nccs1)c1c(C(F)F)nn(C)c1Cl [Compound 236]	Log P	2.4^[a]
CCOC(=O)C(C#N)=C(NC(C(=O)OC)C(C)C)c1cn(C)cc1C(F)(F)F (stereo not drawn) [Compound 726]	Log P	3.43^[a]
CCOC(=O)C(C#N)=C(NC(C)C(C)C)c1ccnn1C(F)F (stereo not drawn) [Compound 1645]	Log P	3.27^[a]
CCOC(=O)C(C#N)=C(Nc1cccc(Cl)c1)c1ccsc1Br [Compound 539]	Log P	4.09^[a]
CCOC(=O)C(C#N)=C(NC(C)c1nccs1)c1ccnn1C(F)F (stereo not drawn) [Compound 1644]	Log P	2.51^[a]

###

- condition_details: pH 2.7
Marks after values point to notes of the source that are not given here.
Entries and their measured Log P follow.

compound	Log P
CCOC(=O)C(C#N)=C(NC(C)[Si](C)(C)C)c1cccnc1Cl (centres unmarked)	3.87^[a]
CCOC(=O)C(C#N)=C(NC(C)Cc1nccs1)c1ccncc1F (mixture of isomers)	2.19^[a]
CCOC(=O)C(C#N)=C(NCc1ncc(C)s1)c1sccc1C(F)(F)F	3.19^[a]
CCOC(=O)C(C#N)=C(NC(C#N)C(C)C)c1cn(C)nc1C(F)F (centres unmarked)	2.76^[a]
CCOC(=O)C(C#N)=C(Nc1ccc2ncsc2c1)c1cccnc1Cl	2.54^[a]
CCOC(=O)C(C#N)=C(Nc1ccccc1SC)c1conc1C	3.21^[a]
CCNC(=O)C(C#N)=C(NC(C)C(C)C)c1ccnc(Br)c1F (centres unmarked)	3.46^[a]
CCOC(=O)/C(C#N)=C(\NC(C)Cc1c[nH]c2ccccc12)c1sccc1Cl (centres unmarked)	3.8^[a]
CCOC(=O)C(C#N)=C(NC(C)Cc1cccnc1)c1cccnc1Cl (mixture of isomers)	1.57^[a]
CCOC(=O)C(C#N)=C(NCc1ncc(C)s1)c1sc(C)nc1C(F)(F)F	3^[a]
CCOC(=O)C(C#N)=C(NC(C)C(=O)NC)c1ncc(C(F)(F)F)cc1Cl (centres unmarked)	2.41^[a]
CCOC(=O)C(C#N)=C(NC(C)c1nccs1)c1c(C(F)F)nn(C)c1F (mixture of isomers)	2.73^[a]
CC(NC(=C(C#N)C(=O)N1CCOCC1)c1cn(C)nc1C(F)F)c1ccccn1 (centres unmarked)	1.63^[a]
CCOC(=O)C(C#N)=C(Nc1cccc(SC)c1)c1sccc1Br	3.96^[a]
CCOC(=O)C(C#N)=C(NC(C)c1csc(C)n1)c1cccnc1Cl (centres unmarked)	2.84^[a]
CCOC(=O)C(C#N)=C(Nc1cccc(SC)c1)c1cn(C)nc1C(F)F	3.17^[a]
CCOC(=O)C(C#N)=C(NC(C)c1ccccn1)c1ccnc(C)c1Cl (racemic)	2.6^[a]
CCOC(=O)C(C#N)=C(NC(C)C(C)C)c1c(C)nn(C)c1F (centres unmarked)	3.19^[a]
CCOC(=O)C(C#N)=C(NC(C(=O)OC)C(C)C)c1sc(C)nc1C(F)(F)F (racemic) [Compound 681]	3.64^[a]
COC(=O)C(C#N)=C(NC(C)c1ccc(Cl)cc1Cl)c1cccnc1Cl (centres unmarked)	3.73^[a]
C=CCCCC(C=C)NC(=C(C#N)C(=O)OCC)c1sccc1Cl (centres unmarked)	4.65^[a]
CCOC(=O)C(C#N)=C(NC1CCCc2cccnc21)c1cccnc1Cl (centres unmarked)	3^[a]
CCOC(=O)C(C#N)=C(NC(C)(C)c1ccccc1)c1cn(C)nc1C(F)F	3.33^[a]
CCOC(=O)C(C#N)=C(NC(c1cc2ccccc2s1)C(F)(F)F)c1nsc(Cl)c1Cl (centres unmarked)	5.11^[a]
CCOC(=O)C(C#N)=C(NCc1nccs1)c1sccc1C(F)(F)F	2.82^[a]
CCOC(=O)C(C#N)=C(NC(C)C(C)C)c1cccnc1C(F)F (centres unmarked)	3.15^[a]
CCOC(=O)C(C#N)=C(Nc1ccc(SC)cc1)c1sccc1Br	4.01^[a]
CCOC(=O)C(C#N)=C(NC(C)COC)c1ccnc(C(F)(F)F)c1Cl (centres unmarked)	3.46^[a]
CCOC(=O)C(C#N)=C(NC(C)c1cccc(OC)n1)c1cccnc1Cl (centres unmarked)	3.5^[a]
COC(=O)C(C#N)=C(NC(C)c1ccc(Cl)cc1)c1cccnc1Cl (centres unmarked)	3.24^[a]
COC(=O)CNC(=O)C(C#N)=C(NC(C)c1nccs1)c1cccnc1Cl (centres unmarked)	1.9^[a]
CCOC(=O)C(C#N)=C(NCc1nccs1)c1ncc(Cl)cc1Cl	2.7^[a]
CCOC(=O)C(C#N)=C(NC(C)C(=O)Nc1ccc2ccccc2c1)c1ccsc1Br (centres unmarked)	3.94^[a]
CCOC(=O)C(C#N)=C(NC(C)COc1ccccc1)c1cccnc1Cl (centres unmarked)	3.58^[a]
CCOC(=O)C(C#N)=C(NC(C)CC)c1cnc(Cl)cc1Cl (racemic)	3.64^[a]

Reference source for all entries: patent US8476197B2
